# Test Target: UniProtKB P06213
Measurement Name: IC50

Query: IC50; subject: C[C@@H]1CCC(N2CC[C@]3(CN(C(=O)c4cc5ccc(F)cc5[nH]4)c4ccccc43)C2)CN1 (stereo partly specified)
> 30 µM

###

# Test Target: Tyrosine-protein kinase Mer (Homo sapiens)
# Sequence (Q12866 whole entry): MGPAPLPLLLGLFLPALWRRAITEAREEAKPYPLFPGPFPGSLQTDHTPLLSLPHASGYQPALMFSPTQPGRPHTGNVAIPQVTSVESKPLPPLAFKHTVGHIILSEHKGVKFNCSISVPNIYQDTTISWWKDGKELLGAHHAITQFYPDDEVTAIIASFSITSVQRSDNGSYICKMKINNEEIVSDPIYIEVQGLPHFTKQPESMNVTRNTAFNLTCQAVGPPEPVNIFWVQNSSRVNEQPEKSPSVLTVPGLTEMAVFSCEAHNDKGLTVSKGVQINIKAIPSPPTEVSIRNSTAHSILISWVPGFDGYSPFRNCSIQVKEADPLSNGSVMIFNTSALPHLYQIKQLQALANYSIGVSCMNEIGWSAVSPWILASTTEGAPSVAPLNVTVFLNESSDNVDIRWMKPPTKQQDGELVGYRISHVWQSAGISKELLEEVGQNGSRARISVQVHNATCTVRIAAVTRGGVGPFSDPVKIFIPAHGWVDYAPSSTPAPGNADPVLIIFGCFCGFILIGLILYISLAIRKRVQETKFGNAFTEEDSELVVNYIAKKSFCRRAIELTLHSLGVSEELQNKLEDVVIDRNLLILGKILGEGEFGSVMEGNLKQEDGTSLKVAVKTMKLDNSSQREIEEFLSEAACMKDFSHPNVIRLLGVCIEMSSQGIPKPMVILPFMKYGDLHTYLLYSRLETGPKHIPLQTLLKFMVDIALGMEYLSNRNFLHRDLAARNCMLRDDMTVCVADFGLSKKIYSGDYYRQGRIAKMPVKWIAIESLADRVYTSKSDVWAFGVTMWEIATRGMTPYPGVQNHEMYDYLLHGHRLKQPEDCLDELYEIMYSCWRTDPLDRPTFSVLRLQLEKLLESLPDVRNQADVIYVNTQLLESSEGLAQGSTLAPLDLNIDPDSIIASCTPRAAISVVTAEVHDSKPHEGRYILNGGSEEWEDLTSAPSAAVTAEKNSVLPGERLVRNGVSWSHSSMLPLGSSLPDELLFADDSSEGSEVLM
I'd be grateful if you could share measured IC50 for these entries.
Give bare numbers, in nM.

Check out these entries, answers already filled in.
C[C@@H]1CCC(N2CC[C@]3(CN(C(=O)c4cc5ccc(F)cc5[nH]4)c4ccccc43)C2)CN1 (stereo partly drawn)	970
O=C(c1cc2cc(F)ccc2[nH]1)N1C[C@]2(CCN(C3CCCNC3)C2)c2ccccc21 (stereo partly drawn)	6930

Attention now turns to another entry.
Query: IC50; subject: C[C@@H]1CCC(N2CC[C@]3(CN(C(=O)c4cc5ccccc5[nH]4)c4ccccc43)C2)CN1 (stereo partly drawn)
2340

###

# Test Target: UniProtKB P11362
# Sequence (P11362 whole entry): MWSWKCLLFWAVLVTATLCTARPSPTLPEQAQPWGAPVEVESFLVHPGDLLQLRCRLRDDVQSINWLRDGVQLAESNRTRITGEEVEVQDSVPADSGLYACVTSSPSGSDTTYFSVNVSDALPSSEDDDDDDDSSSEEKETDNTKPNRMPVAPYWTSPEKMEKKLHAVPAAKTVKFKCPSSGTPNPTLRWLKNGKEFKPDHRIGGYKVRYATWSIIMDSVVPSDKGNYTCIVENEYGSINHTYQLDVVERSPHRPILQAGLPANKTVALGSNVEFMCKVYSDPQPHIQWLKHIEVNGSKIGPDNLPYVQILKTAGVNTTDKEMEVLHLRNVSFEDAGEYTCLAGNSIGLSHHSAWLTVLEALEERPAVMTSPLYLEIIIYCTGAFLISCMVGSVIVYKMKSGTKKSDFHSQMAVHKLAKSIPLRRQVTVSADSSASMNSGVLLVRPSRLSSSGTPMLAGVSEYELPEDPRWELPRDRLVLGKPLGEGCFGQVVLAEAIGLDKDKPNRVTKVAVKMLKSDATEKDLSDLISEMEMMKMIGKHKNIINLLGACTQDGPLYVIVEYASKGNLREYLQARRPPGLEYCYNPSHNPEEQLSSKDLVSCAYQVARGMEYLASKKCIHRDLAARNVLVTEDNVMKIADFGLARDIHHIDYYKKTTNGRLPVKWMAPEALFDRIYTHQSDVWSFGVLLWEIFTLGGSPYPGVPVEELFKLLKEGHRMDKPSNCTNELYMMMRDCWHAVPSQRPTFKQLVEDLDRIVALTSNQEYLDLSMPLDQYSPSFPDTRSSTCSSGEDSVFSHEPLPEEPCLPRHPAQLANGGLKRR
Measurement Name: IC50

Query: IC50; subject: C[C@@H]1CCC(N2CC[C@]3(CN(C(=O)c4cc5ccccc5[nH]4)c4ccccc43)C2)CN1 (stereo partly specified)
> 30 µM

###

I'd be grateful if you could share measured CL/F for these entries.
# Assay Remarks: Clearance in po dosed Sprague-Dawley rat
# Format: ADME, organism-based
# Experimental Conditions: in vivo
Give bare numbers, in mL/min/kg.

O=C(c1cc2cc(Cl)ccc2[nH]1)N1C[C@]2(CCN(C3CCNC3)C2)c2ccccc21 (some centres not stated)	60

Attention now turns to another entry.
Query: CL/F; subject: O=C(c1cc2ccc(F)cc2[nH]1)N1C[C@]2(CCN(C3CCNC3)C2)c2ccccc21 (some centres not stated)
5

###

# Test Target: Serine/threonine-protein kinase pim-2 (Homo sapiens, UniProt Q9P1W9)
# Sequence (Q9P1W9 whole entry): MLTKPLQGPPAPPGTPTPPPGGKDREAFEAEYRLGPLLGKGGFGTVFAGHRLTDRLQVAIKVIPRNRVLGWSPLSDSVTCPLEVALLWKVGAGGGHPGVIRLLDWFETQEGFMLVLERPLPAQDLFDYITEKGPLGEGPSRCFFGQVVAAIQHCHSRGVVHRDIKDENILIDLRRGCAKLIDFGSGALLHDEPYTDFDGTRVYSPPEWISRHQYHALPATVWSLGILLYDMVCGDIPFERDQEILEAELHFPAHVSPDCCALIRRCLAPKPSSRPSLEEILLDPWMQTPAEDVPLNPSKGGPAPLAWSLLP
pIC50: −log10 of the molar value.
Measurement Name: pIC50

Form entry - test system: Serine/threonine-protein kinase pim-2 (Homo sapiens, UniProt Q9P1W9); read-out: pIC50; compound: O=C(c1cc2cc(F)ccc2[nH]1)N1C[C@]2(CCN(C3CCCNC3)C2)c2ccccc21 (stereo partly specified)
< 4.52

###

# Test Target: UniProtKB P04629
# Sequence (P04629 whole entry): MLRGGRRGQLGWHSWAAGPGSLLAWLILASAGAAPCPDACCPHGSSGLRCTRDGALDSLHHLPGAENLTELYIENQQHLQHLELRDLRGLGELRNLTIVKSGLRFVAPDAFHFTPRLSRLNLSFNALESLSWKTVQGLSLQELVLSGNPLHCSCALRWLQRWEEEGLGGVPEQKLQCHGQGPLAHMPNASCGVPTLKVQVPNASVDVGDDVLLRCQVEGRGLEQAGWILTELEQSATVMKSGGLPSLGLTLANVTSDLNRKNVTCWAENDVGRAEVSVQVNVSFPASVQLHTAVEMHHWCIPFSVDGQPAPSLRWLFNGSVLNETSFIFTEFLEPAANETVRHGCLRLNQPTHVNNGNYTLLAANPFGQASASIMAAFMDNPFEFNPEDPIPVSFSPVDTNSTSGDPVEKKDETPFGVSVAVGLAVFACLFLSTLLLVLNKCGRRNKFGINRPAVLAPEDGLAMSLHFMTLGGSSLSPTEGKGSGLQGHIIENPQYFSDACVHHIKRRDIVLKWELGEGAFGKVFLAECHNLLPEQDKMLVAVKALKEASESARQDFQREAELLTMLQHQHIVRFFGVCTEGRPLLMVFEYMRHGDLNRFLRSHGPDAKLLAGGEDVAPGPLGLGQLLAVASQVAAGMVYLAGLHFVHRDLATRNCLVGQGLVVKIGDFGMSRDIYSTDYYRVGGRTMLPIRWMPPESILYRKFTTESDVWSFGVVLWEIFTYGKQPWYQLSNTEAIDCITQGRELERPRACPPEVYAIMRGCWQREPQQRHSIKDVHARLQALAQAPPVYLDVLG
# Assay Remarks: Inhibition of TrkA
Measurement Name: IC50

Query: IC50; subject: C[C@@H]1CCC(N2CC[C@]3(CN(C(=O)c4cc5ccc(F)cc5[nH]4)c4ccccc43)C2)CN1 (stereo partly specified)
> 30 µM

###

# Test Target: Serine/threonine-protein kinase Chk1 (Homo sapiens)
# Sequence (O14757 whole entry): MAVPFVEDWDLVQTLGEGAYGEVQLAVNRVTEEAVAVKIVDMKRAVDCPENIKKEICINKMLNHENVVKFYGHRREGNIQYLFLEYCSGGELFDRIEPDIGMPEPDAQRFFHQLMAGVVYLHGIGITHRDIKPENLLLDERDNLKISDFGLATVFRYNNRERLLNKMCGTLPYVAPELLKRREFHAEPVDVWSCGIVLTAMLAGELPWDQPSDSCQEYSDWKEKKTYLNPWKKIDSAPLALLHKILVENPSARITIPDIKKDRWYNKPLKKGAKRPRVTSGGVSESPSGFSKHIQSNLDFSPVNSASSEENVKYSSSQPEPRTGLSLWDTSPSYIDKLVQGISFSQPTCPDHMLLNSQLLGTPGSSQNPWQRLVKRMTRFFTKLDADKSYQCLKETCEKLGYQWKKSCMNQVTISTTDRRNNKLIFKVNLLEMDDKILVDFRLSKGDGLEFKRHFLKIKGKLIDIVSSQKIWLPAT
pIC50: −log10 of the molar value.
Measurement Name: pIC50

Query: pIC50; subject: O=C(c1cc2ccc(F)cc2[nH]1)N1C[C@]2(CCN(C3CCNC3)C2)c2ccccc21 (stereo partly specified)
< 4.52

###

pIC50: −log10 of the molar value.
The reader will find pIC50 measurements below, all made with Tyrosine-protein kinase ABL1 (Homo sapiens).
Sequence (P00519 whole entry): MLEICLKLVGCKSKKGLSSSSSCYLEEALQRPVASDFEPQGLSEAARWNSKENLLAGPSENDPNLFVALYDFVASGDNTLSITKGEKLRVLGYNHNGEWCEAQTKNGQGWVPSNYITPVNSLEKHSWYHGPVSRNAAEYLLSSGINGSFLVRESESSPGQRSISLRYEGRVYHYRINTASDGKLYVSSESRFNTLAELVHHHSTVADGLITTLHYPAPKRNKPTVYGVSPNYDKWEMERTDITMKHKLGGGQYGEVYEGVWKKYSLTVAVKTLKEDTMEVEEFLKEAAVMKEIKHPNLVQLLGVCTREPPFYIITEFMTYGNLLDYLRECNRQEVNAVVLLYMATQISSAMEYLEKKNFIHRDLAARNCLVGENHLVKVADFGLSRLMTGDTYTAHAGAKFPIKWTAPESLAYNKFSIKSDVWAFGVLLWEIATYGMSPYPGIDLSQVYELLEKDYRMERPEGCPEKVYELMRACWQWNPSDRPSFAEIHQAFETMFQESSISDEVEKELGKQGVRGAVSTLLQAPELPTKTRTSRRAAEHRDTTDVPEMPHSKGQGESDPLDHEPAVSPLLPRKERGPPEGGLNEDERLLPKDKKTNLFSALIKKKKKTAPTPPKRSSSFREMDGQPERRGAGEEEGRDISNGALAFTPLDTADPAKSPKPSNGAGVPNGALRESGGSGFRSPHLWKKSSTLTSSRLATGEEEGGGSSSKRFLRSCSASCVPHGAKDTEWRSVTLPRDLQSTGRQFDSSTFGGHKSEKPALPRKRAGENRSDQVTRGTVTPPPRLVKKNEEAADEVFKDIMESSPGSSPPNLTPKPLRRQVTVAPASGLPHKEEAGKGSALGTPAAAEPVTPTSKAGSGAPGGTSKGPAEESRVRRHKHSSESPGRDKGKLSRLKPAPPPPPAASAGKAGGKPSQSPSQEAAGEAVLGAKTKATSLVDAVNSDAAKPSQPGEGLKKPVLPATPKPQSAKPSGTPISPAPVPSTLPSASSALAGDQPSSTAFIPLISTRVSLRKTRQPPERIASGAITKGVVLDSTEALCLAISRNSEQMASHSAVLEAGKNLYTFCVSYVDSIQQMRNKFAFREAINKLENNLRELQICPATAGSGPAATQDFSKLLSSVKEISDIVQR

C[C@@H]1CCC(N2CC[C@]3(CN(C(=O)c4cc5ccc(F)cc5[nH]4)c4ccccc43)C2)CN1 (some centres not stated)	< 4.52

Attention now turns to another entry.
Query: pIC50; subject: O=C(c1cc2cc(F)ccc2[nH]1)N1C[C@]2(CCN(C3CCCNC3)C2)c2ccccc21 (some centres not stated)
< 4.52

###

# Test Target: CYP2D6 (Homo sapiens, UniProt P10635)
# Sequence (P10635 whole entry): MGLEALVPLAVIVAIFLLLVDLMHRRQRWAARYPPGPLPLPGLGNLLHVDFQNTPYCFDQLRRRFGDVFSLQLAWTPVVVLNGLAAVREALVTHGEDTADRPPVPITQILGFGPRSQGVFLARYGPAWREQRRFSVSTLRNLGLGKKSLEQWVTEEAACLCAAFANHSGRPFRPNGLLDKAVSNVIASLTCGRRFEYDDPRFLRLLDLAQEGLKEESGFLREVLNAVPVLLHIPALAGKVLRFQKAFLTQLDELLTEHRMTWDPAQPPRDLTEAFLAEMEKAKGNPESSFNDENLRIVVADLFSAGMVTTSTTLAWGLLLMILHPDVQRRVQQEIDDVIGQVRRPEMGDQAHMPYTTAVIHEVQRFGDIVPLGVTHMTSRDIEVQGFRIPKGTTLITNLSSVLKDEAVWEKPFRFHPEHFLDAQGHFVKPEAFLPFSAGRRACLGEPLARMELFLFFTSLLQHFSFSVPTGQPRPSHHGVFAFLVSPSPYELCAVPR
# Assay Remarks: Inhibition of CYP2D6 using dextromethorphan as substrate at 3 uM
# Format: ADME
# Experimental Conditions: probe dextromethorphan
Measurement Name: inhibition at 3 µM (%)
Numbers only, in %.

Form entry - test system: CYP2D6 (Homo sapiens, UniProt P10635); read-out: inhibition at 3 µM; molecule: C[C@@H]1CCC(N2CC[C@]3(CN(C(=O)c4cc5ccc(F)cc5[nH]4)c4ccccc43)C2)CN1 (stereo partly specified)
94

###

# Test Target: Inhibitor of nuclear factor kappa-B kinase subunit beta (Homo sapiens, UniProt O14920)
# Sequence (O14920 whole entry): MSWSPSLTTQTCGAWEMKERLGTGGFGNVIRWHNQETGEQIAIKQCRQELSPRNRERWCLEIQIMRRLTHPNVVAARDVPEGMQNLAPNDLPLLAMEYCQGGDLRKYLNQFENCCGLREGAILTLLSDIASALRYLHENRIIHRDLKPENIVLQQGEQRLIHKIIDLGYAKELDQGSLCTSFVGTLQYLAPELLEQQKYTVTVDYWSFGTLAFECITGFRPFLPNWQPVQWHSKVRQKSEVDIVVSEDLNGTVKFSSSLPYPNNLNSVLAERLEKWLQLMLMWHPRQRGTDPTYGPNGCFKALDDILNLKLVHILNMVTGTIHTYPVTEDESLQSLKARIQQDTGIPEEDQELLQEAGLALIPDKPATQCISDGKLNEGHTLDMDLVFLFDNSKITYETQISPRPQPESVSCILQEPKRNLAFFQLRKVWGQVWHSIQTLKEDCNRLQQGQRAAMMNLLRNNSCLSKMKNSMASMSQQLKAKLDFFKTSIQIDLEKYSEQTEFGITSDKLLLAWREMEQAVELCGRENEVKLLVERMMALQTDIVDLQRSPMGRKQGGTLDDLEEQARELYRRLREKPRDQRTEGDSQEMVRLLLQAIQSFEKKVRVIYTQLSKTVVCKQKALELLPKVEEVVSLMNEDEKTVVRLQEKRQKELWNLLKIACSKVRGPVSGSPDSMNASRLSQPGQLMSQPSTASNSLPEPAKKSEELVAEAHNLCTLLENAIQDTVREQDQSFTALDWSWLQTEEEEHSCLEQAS
# Assay Remarks: Inhibition of IKK-beta
I'd be grateful if you could share measured IC50 for these entries.

Provide each entry's IC50 from the list below.
1. C[C@@H]1CCC(N2CC[C@]3(CN(C(=O)c4cc5ccc(F)cc5[nH]4)c4ccccc43)C2)CN1 (some centres undefined)
2. O=C(c1cc2cc(F)ccc2[nH]1)N1C[C@]2(CCN(C3CCCNC3)C2)c2ccccc21 (some centres undefined)

1: > 30 µM; 2: > 30 µM

Provide each entry's IC50 from the list below.
1. O=C(c1cc2ccc(F)cc2[nH]1)N1C[C@]2(CCN(C3CCNC3)C2)c2ccccc21 (some centres undefined)
2. C[C@@H]1CCC(N2CC[C@]3(CN(C(=O)c4cc5ccccc5[nH]4)c4ccccc43)C2)CN1 (some centres undefined)

1: > 30 µM; 2: > 30 µM

###

# Test Target: Tyrosine-protein kinase Lck (Homo sapiens)
# Sequence (P06239 whole entry): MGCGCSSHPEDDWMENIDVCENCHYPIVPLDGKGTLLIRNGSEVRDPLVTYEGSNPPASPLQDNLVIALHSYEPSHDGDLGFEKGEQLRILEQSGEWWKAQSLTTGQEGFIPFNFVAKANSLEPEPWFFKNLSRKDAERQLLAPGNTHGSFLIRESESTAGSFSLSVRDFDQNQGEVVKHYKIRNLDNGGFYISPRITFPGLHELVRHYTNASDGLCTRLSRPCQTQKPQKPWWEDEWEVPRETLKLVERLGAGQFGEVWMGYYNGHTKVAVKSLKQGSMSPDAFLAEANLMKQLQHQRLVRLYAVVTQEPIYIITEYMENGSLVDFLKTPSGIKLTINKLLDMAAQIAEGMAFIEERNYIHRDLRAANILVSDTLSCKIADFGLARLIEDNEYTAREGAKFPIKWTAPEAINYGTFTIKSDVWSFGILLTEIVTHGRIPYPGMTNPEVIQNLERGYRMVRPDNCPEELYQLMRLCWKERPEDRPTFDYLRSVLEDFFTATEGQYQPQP
pIC50: −log10 of the molar value.
I'd be grateful if you could share measured pIC50 for these entries.

O=C(c1cc2ccc(F)cc2[nH]1)N1C[C@]2(CCN(C3CCNC3)C2)c2ccccc21 (some centres not stated)	< 4.52

Attention now turns to another entry.
Query: pIC50; subject: O=C(c1cc2cc(F)ccc2[nH]1)N1C[C@]2(CCN(C3CCCNC3)C2)c2ccccc21 (some centres not stated)
< 4.52

###

# Assay Remarks: Oral bioavailability in Sprague-Dawley rat
# Assay type: ADME, organism-based
# Experimental Conditions: in vivo
I'd be grateful if you could share measured bioavailability for these entries.

O=C(c1cc2cc(Cl)ccc2[nH]1)N1C[C@]2(CCN(C3CCNC3)C2)c2ccccc21 (some centres not stated)	14%

Attention now turns to another entry.
Query: bioavailability; subject: O=C(c1cc2ccc(F)cc2[nH]1)N1C[C@]2(CCN(C3CCNC3)C2)c2ccccc21 (some centres not stated)
11%

Where do the numbers come from? From ChEMBL document CHEMBL1933021.
